# System: CL-11 (Colorectal Carcinoma)
# TEST_PROTOCOL: combination Emax (second highest fraction inhibited in the dose matrix, 72 h); higher = more inhibition; extreme values may be limits of the assay
# key: entry, value: combination Emax
API doc: respond with a numeric literal and nothing else, no unit.

Check out these entries, answers already filled in.
Task: Please indicate combination Emax recorded for CC1(C)CCC(CN2CCN(c3ccc(C(=O)NS(=O)(=O)c4ccc(NCC5CCOCC5)c([N+](=O)[O-])c4)c(Oc4cnc5[nH]ccc5c4)c3)CC2)=C(c2ccc(Cl)cc2)C1 [Venetoclax] + Cn1cnc2c(F)c(Nc3ccc(Br)cc3Cl)c(C(=O)NOCCO)cc21 [Selumetinib] (first compound max 1 µM, 7x7, partner max 3 µM)
Output: 0.528

Task: Retrieve combination Emax measured for Cc1c2c(nn1C)CSCc1cc(n(C)n1)CSc1cc(c3ccccc3c1)OCCCc1c(C(=O)O)n(C)c3c-2c(Cl)ccc13 [AZD5991] + CC1(C)CCC(CN2CCN(c3ccc(C(=O)NS(=O)(=O)c4ccc(NCC5CCOCC5)c([N+](=O)[O-])c4)c(Oc4cnc5[nH]ccc5c4)c3)CC2)=C(c2ccc(Cl)cc2)C1 [Venetoclax] (first compound max 1 µM, 7x7, partner max 1 µM) and print it.
Output: 0.137

Continue with the next compound.
Task: Tell me combination Emax reported for CN(CCO)CC[C@H](CSc1ccccc1)Nc1ccc(S(=O)(=O)NC(=O)c2ccc(N3CCC([C@@H](O)c4ccccc4-c4ccc(Cl)cc4)CC3)cc2)cc1S(=O)(=O)C(F)(F)F [AZD4320] + CN(C)CCCOc1ccc(-c2ccc3ncc4c(c3c2)n(C2CCOCC2)c(=O)n4C)cn1 [AZD0156] (first compound max 1 µM, 7x7, partner max 1 µM)
Output: 0.144
